Sourced from PubChem BioAssay AID1996

- CONDITION: buffer; pH 7.4; 200.0 µM
Rule: solubility kinetic of 10 µg/mL or more gives condition met; anything lower gives condition not met.

input: Check the entry COc1ccc(Cl)cc1S(=O)(=O)n1c([N+](=O)[O-])cnc1C : does solubility kinetic equal or exceed 10 µg/mL?
output: condition met

input: Has Cc1ccc(C(=O)NCCc2ccccc2)cc1 a recorded solubility kinetic greater than or equal to 10 µg/mL?
output: condition met

input: hey, is solubility kinetic for this one >= 10 µg/mL? CS(=O)(=O)N(Cc1ccccc1Cl)c1ccc(C(=O)N2CCCC2)cc1
output: condition met

input: State whether the measured solubility kinetic reaches 10 µg/mL, counting equality as reaching it, for Cc1cc(C(=O)Nc2ccc(Br)cc2)c2ccccc2n1
output: condition not met

input: Check the entry O=C(C1CC1)N(Cc1nc2ccccc2c(=O)[nH]1)Cc1cccs1 : does solubility kinetic equal or exceed 10 µg/mL?
output: condition met

input: Has Cc1ccc(/C([O-])=C(/C(=S)NCc2ccccc2)[n+]2ccccc2)cc1[N+](=O)[O-] a recorded solubility kinetic greater than or equal to 10 µg/mL?
output: condition met

input: Identify whether the reported solubility kinetic of the following molecule is 10 µg/mL or greater: COc1ccc(S(=O)(=O)Nc2c(C)nn(C)c2C)cc1Br
output: condition met

input: Say whether Cn1nccc1NC(=O)Nc1ccc(Cl)cc1 shows solubility kinetic of 10 µg/mL or more.
output: condition met

input: Is it the case that Cc1cc(NC(=O)CSc2cc(C)c3ccccc3n2)no1 has solubility kinetic reaching or exceeding 10 µg/mL?
output: condition not met

input: Does N#Cc1c(-c2ccc3c(c2)OCO3)cc[nH]c1=O have a reported solubility kinetic of at least 10 µg/mL?
output: condition not met

input: Has O=C(N/N=C/c1ccoc1)c1ccccc1F a recorded solubility kinetic greater than or equal to 10 µg/mL?
output: condition met

input: Check if solubility kinetic >= 10 µg/mL (inclusive). Item: Cc1ccc(C)c(C(=O)N2CCN(c3ncccn3)CC2)c1
output: condition met

###

I'd appreciate it if you could supply solubility kinetic values for the items below.
- CONDITION: buffer; pH 7.4; 200.0 µM
The figure you give is taken to be in µg/mL; do not add the unit.

input: What does the record list as solubility kinetic for COC(=O)c1[nH]c2cccc(OC)c2c1NC(=O)CCN1CCSCC1 ?
output: 54.6

input: What value of solubility kinetic has been reported for the following compound? Cc1ccc(C(=O)Nc2ccc(N3CCOCC3)nc2N2CCOCC2)cc1
output: 5.6

input: Data request, read-out solubility kinetic, for CN(c1ccccc1)c1ccc([N+](=O)[O-])c2nonc12
output: 2.1

input: Entry under review: COc1ccccc1C(=O)Nc1ccncc1 . Reported solubility kinetic?
output: 33.4

input: Returns the measured solubility kinetic for the input compound. Input: S=C(Nc1ccccc1)Nc1ccccc1-n1cccc1
output: 34.2

input: Entry CC1CCN(c2ccc([N+](=O)[O-])c(SCCO)c2)CC1 has what solubility kinetic?
output: 28.4

input: Returns the measured solubility kinetic for the input compound. Input: COc1cc2c(cc1OC)CN(C(=O)/C=C/c1ccc(F)cc1)CC2
output: 46.9

input: Look at this compound and give its reported solubility kinetic. CCCCCCC(=O)OCC(=O)c1ccc2c(c1)NC(=O)CO2
output: 10.8

input: # solubility kinetic lookup, item COc1ccc(CNc2ccc(C)c(C)c2)cc1
output: 1.5

input: What does the record list as solubility kinetic for O=C1NC(=O)c2cc([N+](=O)[O-])cc3cccc1c23 ?
output: 6.3

input: # query: solubility kinetic of entry Cc1cc(C)cc(NC(=O)N2c3ccccc3NC(=O)CC2C)c1 (stereo not given)
output: 46.8

input: Entry under review: Cc1cccc2nc3c(nc12)CCCC3 . Reported solubility kinetic?
output: 6.4
